- Test system: TO-3-N3 (biotin conjugate)
- run.description: pull-down binding Z-score (relative to library population); higher = stronger binding
- protocol.conditions: RNA library: Library-2
result.type: pull-down binding Z-score

>>> df
                            ordered_residues                result_type  readout_value
 0  UCAGAUAUUUAAGUUAACAGUAUUUGA [hsa-mir-580]  pull-down binding Z-score         -0.784
 1   GUGUCGCCCCACGAGGGGGACUGU [hsa-mir-4322]  pull-down binding Z-score       -0.00462
 2            UGAGGUACUUCCUUC [hsa-mir-1205]  pull-down binding Z-score          0.111
 3  GCGGGGAACGAGGCCGUCGGCCAUUUUGUG [hsa-mir-632]  pull-down binding Z-score            1.2
 4  GGGCUCAGAAUAUGACUAUGUCAUAUUCACUCAAACCACUGAAACAGCUC [SHAPE_invitro_SARS-CoV-2_Motif_328]  pull-down binding Z-score         -0.515
 5  UUCUCGAGUCUAUGGCUCCGGCCGAGAG [hsa-mir-219a-1]  pull-down binding Z-score          0.197
 6   UCAGCUGGUUUUCCAUUUAAUAAAUGGGGUAAGGCUAGA  pull-down binding Z-score         -0.104
 7      CUGCAGUGAGUAGGUCUGCCU [hsa-mir-4254]  pull-down binding Z-score           0.19
 8  GGAGUUGAUGCACAGUUAUCCAGCUCC [hsa-mir-337]  pull-down binding Z-score         -0.577
 9  AGAUCUGUCUCUGAUUGUUUCCAAGAUCU [hsa-mir-6888]  pull-down binding Z-score          0.132
10                  GGGGCUCUU [hsa-mir-4634]  pull-down binding Z-score         0.0873

###

- System: TO-N3 (biotin conjugate)
- run.description: pull-down binding Z-score (relative to library population); higher = stronger binding
- protocol.conditions: RNA library: Library-2
pull-down binding Z-score below -0.4 gives f; pull-down binding Z-score at or above it gives t.

ordered.residues	category.label
CCAUAAGCUGUCUAAAACUUCG [hsa-mir-4513]	t
UUUGUCAUUACUUUAAUUACUUUACGUUUCAUUAAUGACAAA [hsa-mir-548h-4]	f
CUGUGGUGGCUGCUCAUGCACCACGG [hsa-mir-105-1]	f
CUAUUCAAACAAUUGUUGAGGUUCAACCUCAAUUAGAGAUGGAACUUACACCAGUUGUUCAGACUAUUGAAGUGAAUAGUUUUAG [SHAPE_invivo_SARS-CoV-2_Multi_36_ComplexLevel_1]	f
GACCCUAAGACUAAAAAUGUUACAAAAGAAAAUGACUCUAAAGAGGGUUUUUUCACUUACAUUUGUGGGUU	t
UUAAUGAGGCCAUAGA [hsa-mir-6863]	t
CAGUCAGUAAAUAUUUUUUUGUGAAUG [hsa-mir-511]	t
GGCGACUGGUGUCUAAUUUGUUUGUC [hsa-mir-4429]	t
GACUUUUCUAUUUUCCAAAAGC [hsa-mir-423]	f

###

- Tested on: TO-N3-2 (biotin conjugate)
- run.description: pull-down binding Z-score (relative to library population); higher = stronger binding
- protocol.conditions: RNA library: Library-2
result.type: pull-down binding Z-score

In [3]: df
Out[3]:
                           ordered_residues                result_type  readout_value
0  AGGUUUGUGUCCAAUACAGUCCACACCU [hsa-mir-3200]  pull-down binding Z-score         -0.572
1     CACUCCCGGGAUCCCCAGGGAC [hsa-mir-3176]  pull-down binding Z-score           0.68
2     GCGCGGCCAGAAACUGGCAGCGC [mismatch-GA]  pull-down binding Z-score          -1.21
3      CUCAUGUAAACUAAAACAUGAU [hsa-mir-508]  pull-down binding Z-score         -0.891
4        GAUUGCUAAUAGUACCAAUC [hsa-mir-34c]  pull-down binding Z-score         -0.636
5  UGGGUUGGGUUGGGUUGGGUUGGGUUGGGU [G4_r(UGGGU)6]  pull-down binding Z-score           5.72

###

- Test system: TO-N3 (biotin conjugate)
- run.description: pull-down binding Z-score (relative to library population); higher = stronger binding
- protocol.conditions: RNA library: Library-2
pull-down binding Z-score below -0.2 gives false (0); pull-down binding Z-score at or above it gives true (1).

>>> df
                            ordered_residues  category_label
 0                GGUCAAAUCAAUGAUAUGAUUUUAUC       false (0)
 1    CUCCUCCGCUGCCGCCGGGAGAG [hsa-mir-4785]       false (0)
 2     AGGACGGUGCGCCUUGUUUCCC [hsa-mir-3132]        true (1)
 3         CCCUGCCCAGUGCAGGAG [hsa-mir-6069]       false (0)
 4   AGAAGCCCAGGUUCUGAAUCCCCU [hsa-mir-6734]        true (1)
 5  UUUAGAUUUAAAUAGUGAUUGUCUAG [hsa-mir-29b-1]        true (1)
 6        GGUGGUUGUGGGAGUCACU [hsa-mir-4418]        true (1)
 7   CAGGGCGGUGCGGCAGCCGCCACC [hsa-mir-3621]        true (1)
 8  CUUCAUUAAAAGAAUUACUGCAAAAUGGUAUGAAUGGACGUACCAUAUUGGGUAGUGCUUUAUUAGAAG       false (0)
 9  AGGUCCAGACAUGUUCCUCGGAACUUGUCGGCGUUGUCCU       false (0)
10   UCCACACUGACAAGGGCCGUGGGG [hsa-mir-3191]        true (1)
11      GUGCUGGCAGUGGCCACGUAA [hsa-mir-4276]        true (1)
12      CUCAACUCUUGGUCCUCUGAG [hsa-mir-3165]       false (0)
13  ACAACAACCAUAAAACCAGUUACUUAUAAAUUGGAUGGUGUUGU       false (0)
14  CCCAUUGGAGAGUCCCCCAAAGGAGUGGAGGAAAGUUCCAUUGGG [IAV_invivo_PA_3_Motif_26+IAV_invivo_PA_3_Motif_26]        true (1)
15                UAAUAACGCUACUAAUGUUGUUAUUA       false (0)
16        AAUCCCAGCACUUUGGGAG [hsa-mir-3929]        true (1)
17         GCGGCCGCGCUGGCCGCU [hsa-mir-3665]        true (1)
18  UAUGACCAGGCCAUAGUAAACAUCAUA [hsa-mir-4744]       false (0)
19   AGUUCCUGAUUAAGAAAUGGAAUU [hsa-mir-4699]       false (0)
20  AUGGUGCUAACAAAGACGGCAUCAU [SHAPE_invivo_SARS-CoV-2_Motif_545]        true (1)
21    GAGCCUGUCACAUCUCCAGACUC [hsa-mir-3925]        true (1)
22  UAGUUACACGGUGUUUAAACCGUGUUUGUACUA [SHAPE_invivo_SARS-CoV-2_Motif_139]       false (0)
23      CAGCCUGUUGUCAAGGCUG [hsa-mir-3130-1]        true (1)
24  GUUGUUGUGAGCAAUAGUAAGGAAGCAAU [hsa-mir-34a]        true (1)
25    AAAACUUUCAUCCAAGUCAUU [hsa-mir-378d-2]        true (1)
26  GGUGUGGAUGGCAUGCC [IAV_invivo_NP_5_Motif_17+IAV_invivo_NP_5_Motif_17]        true (1)
27  ACGUGAGUCUUGUAAAACCUUCUUUUUACGUUUACUCUCGU        true (1)
28  CUCUCCUCCAGCUCAGCUGGUCAGGAGAG [hsa-mir-3160-1]        true (1)
29                         GUAAGAGAAUUCCUUAC       false (0)
30  GGUUUAGCUGCUGUUAAUAGUGUCCCUUGGGAUACUAUAGCUAAUUAUGCUAAGCC        true (1)
31               GGAGAUCGUACC [hsa-mir-4430]        true (1)
32  UUCACAGACUCUCCAAAAGUCUGAA [hsa-mir-4670]       false (0)
33  GACUCAUUCAAGGAGGAGUU [SHAPE_invivo_SARS-CoV-2_Motif_469]        true (1)
34  UUCUGUUGUCAGAAAGAAGAGAA [hsa-mir-1283-1]        true (1)
35    UGUGAGAGCUACUAAGUCUUAUA [hsa-mir-8076]        true (1)
36    CUCGGCCAUCCUCCGUCUGCCCAG [hsa-mir-935]        true (1)
37     UCAGUUUUGUAGCAUCAAAACU [hsa-mir-4521]       false (0)
38  GACAGGGCAGAGGGUUGCGCCCCCUC [hsa-mir-6511b-1_6511b-2_6511a-2_6511a-3_6511a-1_6511a-4]        true (1)
39        CCUAAACGAACAUGAAAUUUCUUGUUUUCUUAGG       false (0)
40          AAUGCAUAGAAAGCAUU [hsa-mir-4272]       false (0)
41  GCUUGCUGUACAUAACUCAAUAGCCGGAAGC [hsa-mir-129-2]        true (1)
42  AUGUACUUGGAUUGGCUGCAAUCAUGCAAUUGUUUUUCAGCUAUUUUGCAGUACAU       false (0)

Entry source: the supplement of paper PMC11865577
